Biological target: SCD5 (Homo sapiens)
Construct: host or cells: S. cerevisiae ole1Δ strain (W303 pdr1Δ pdr3Δ background), plasmid pRS316 with TDH3 promoter and CYC1 terminator
Sequence (Q86SK9 1-330): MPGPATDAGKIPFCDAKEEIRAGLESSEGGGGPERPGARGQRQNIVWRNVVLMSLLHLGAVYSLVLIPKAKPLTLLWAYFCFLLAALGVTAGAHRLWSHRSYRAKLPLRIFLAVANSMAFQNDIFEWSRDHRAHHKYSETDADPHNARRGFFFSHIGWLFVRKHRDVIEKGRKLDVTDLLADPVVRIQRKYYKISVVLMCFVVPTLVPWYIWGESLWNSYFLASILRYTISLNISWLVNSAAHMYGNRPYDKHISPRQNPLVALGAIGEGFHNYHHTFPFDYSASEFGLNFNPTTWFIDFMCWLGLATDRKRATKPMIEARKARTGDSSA
Assay: Growth inhibition of humanized yeast strain expressing SCD5 as sole desaturase
Type: cell-based
Conditions: humanized yeast strain, 40 h
value kind: pIC50
Conceptually, pIC50 converts a concentration in mol/L into minus its log10.

The examples below pair each entry with its known result.
Jot down pIC50 (SCD5 (Homo sapiens)) of CC1(C(=O)N2CCN(c3nc(-c4ccc5cnn(C6COC6)c5c4)no3)CC2)CCOC1 (stereo not drawn) .
5.39

Jot down pIC50 (SCD5 (Homo sapiens)) of "COC1(C(=O)N2CCC(C)(c3nc(-c4ccc5cnn(C(C)C)c5c4)no3)CC2)CC1" .
5.67

Jot down pIC50 (SCD5 (Homo sapiens)) of "CN(c1cc(-c2nc(C3CCN(C(=O)OC4(C)CC4)CC3)no2)ccn1)C1COC1" .
5.46

Jot down pIC50 (SCD5 (Homo sapiens)) of CC(C)(C)OC(=O)N1CCC(c2noc(-c3cc(C4CCOC4)ccn3)n2)CC1 (stereo not drawn) .
7.40

Jot down pIC50 (SCD5 (Homo sapiens)) of "COC(=O)N1CCC(c2noc(-c3ccc4cnn([C@H]5C[C@@H](O)C5)c4c3)n2)CC1" .
5.28

Jot down pIC50 (SCD5 (Homo sapiens)) of "C[C@H]1C[C@H](c2noc(-c3ccc4cnn(C5COC5)c4c3)n2)CCN1C(=O)OC(C)(C)C" .
8.00

Jot down pIC50 (SCD5 (Homo sapiens)) of CC1(OC(=O)N2CCC(c3nc(-c4cccc(C5CCOC5)c4)no3)CC2)CC1 (stereo not drawn) .
7.40

Jot down pIC50 (SCD5 (Homo sapiens)) of "CC(C)C(=O)N1CCC(c2noc(-c3cc(F)c4cnn(C5COC5)c4c3)n2)CC1" .
8.43

New cases:
Jot down pIC50 (SCD5 (Homo sapiens)) of O=C1CC(c2noc(-c3ccc4cnn(C5COC5)c4c3)n2)CCN1CC1CC1 (stereo not drawn) .
6.06

Jot down pIC50 (SCD5 (Homo sapiens)) of "CC1(CC(=O)N2CCN(c3noc(-c4ccc5cnn(C6COC6)c5c4)n3)CC2)CC1" .
8.00

Jot down pIC50 (SCD5 (Homo sapiens)) of "COC1(C(=O)N2CCN(c3noc(-c4ccc5cnn(C6COC6)c5c4)n3)CC2)CC1" .
8.00

Jot down pIC50 (SCD5 (Homo sapiens)) of "O=C(C1CCC1)N1CCN(c2noc(-c3ccc4cnn(C5COC5)c4c3)n2)CC(F)(F)C1" .
8.00

Jot down pIC50 (SCD5 (Homo sapiens)) of CC(C)(C)OC(=O)N1CCN(c2nc(-c3ccc4cnn(C5CCOC5)c4c3)no2)CC1 (stereo not drawn) .
8.00

Jot down pIC50 (SCD5 (Homo sapiens)) of "CC(C)n1ncc2ccc(-c3noc(N4CCC(O)(CCCl)CC4)n3)cc21" .
4.74

Jot down pIC50 (SCD5 (Homo sapiens)) of "O=C(c1ncccc1F)N1CCN(c2noc(-c3ccc4cnn(C5COC5)c4c3)n2)CC1" .
5.35

Jot down pIC50 (SCD5 (Homo sapiens)) of O=C(OC1CCC1)N1CCC(c2nnc(-c3ccc4cnn(C5CCOC5)c4c3)o2)CC1 (stereo not drawn) .
7.57

Jot down pIC50 (SCD5 (Homo sapiens)) of "CC(C)(C)OC(=O)N1CCC(c2noc(-c3cccc(N4CCOCC4)c3)n2)CC1" .
6.77

Jot down pIC50 (SCD5 (Homo sapiens)) of "CC(C)(C)OC(=O)N1CCC(c2nc(-c3ccnc(Cl)c3)no2)CC1" .
4.57

Jot down pIC50 (SCD5 (Homo sapiens)) of "CC(C)(C)OC(=O)N1CCC(c2noc(-c3cc(N4CCOCC4)ccc3F)n2)CC1" .
6.31

Jot down pIC50 (SCD5 (Homo sapiens)) of "CC(C)(C)OC(=O)N1CCC(c2noc(-c3ccc4cnn(C5COC5)c4c3)n2)CC1" .
8.00

Jot down pIC50 (SCD5 (Homo sapiens)) of "O=C(OC1CC1)N1CCN(c2noc(-c3ccc4cnn(C5COC5)c4c3)n2)CC(F)(F)C1" .
7.48

Jot down pIC50 (SCD5 (Homo sapiens)) of "COC(=O)N1CCN(c2noc(-c3cccc(OC4COC4)c3)n2)CC1" .
6.44

These measurements were taken from patent US11873298B2.
